// data source = patent US20250228835A1

Biological target: ABCD2 WT (Homo sapiens, UniProt Q9UBJ2)
Sequence (Q9UBJ2 whole entry): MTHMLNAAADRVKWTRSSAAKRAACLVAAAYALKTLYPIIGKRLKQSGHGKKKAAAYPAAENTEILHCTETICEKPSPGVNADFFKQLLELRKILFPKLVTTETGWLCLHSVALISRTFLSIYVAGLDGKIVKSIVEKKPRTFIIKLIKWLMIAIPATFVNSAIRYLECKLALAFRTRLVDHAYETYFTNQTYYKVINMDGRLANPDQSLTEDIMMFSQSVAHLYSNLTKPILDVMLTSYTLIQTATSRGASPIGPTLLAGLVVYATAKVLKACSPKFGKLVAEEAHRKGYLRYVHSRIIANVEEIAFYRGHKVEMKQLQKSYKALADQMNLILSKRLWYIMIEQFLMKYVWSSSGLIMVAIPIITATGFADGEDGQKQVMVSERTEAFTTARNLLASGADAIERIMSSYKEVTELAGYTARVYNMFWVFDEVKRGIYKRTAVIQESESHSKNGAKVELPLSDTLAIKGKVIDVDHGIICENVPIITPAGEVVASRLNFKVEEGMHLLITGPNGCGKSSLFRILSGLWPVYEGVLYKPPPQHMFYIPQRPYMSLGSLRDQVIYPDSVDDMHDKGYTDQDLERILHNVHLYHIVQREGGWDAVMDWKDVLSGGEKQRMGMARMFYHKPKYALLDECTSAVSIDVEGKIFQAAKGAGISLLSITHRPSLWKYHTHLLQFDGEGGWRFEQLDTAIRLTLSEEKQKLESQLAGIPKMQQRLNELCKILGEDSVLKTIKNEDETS
Experiment: D2 correction dose-response assay: ABCD2 WT HiBit protein expression
Conditions: HEK-293/ABCD2 WT cells, 24 hours treatment, HiBit luminescence; class combines EC50 and Mean MaxAct (fold); read-out: ABCD2 WT EC50, Emax
measurement kind: EC50

Consider the worked cases shown below.
>>> readout_value("Cc1cc(C)c(Oc2nc(-c3cncc(Cl)c3)ccc2NS(=O)(=O)C2CC2)c(C)n1 [Compound I-238]")
"1 to 10 µM"
>>> readout_value("Cc1cc(C)c(Oc2nc(N3CCN(S(=O)(=O)C4CC4)CC3)ccc2NS(C)(=O)=O)c(C)c1 [Compound I-44]")
"10 to 25 µM"
>>> readout_value("CNS(=O)(=O)c1ccc(-c2cncc(C#N)c2)nc1Oc1c(C)cc(C(F)(F)F)nc1C [Compound I-168]")
"1 to 10 µM"
>>> readout_value("Cc1nc(C2COC2)nc(C)c1Oc1nc(-c2cncc(C#N)c2)ccc1NS(C)(=O)=O [Compound I-174]")
"1 to 10 µM"
>>> readout_value("Cc1nc(C)c(Oc2nc(-c3cncc(C(F)(F)F)c3)ccc2NS(C)(=O)=O)c(C)n1 [Compound I-192]")
"> 25 µM"

Recorded EC50 of COC(=O)c1cncc(-c2ccc(NS(C)(=O)=O)c(Oc3cc(C)n(C)n3)n2)c1 [Compound I-206] , please.
> 25 µM

Need EC50 of Cc1nc(C2CCC2)nc(C)c1Oc1nc(-c2cncc(C#N)c2)ccc1NS(C)(=O)=O [Compound I-181] , thanks.
> 25 µM

Name the reported EC50 value associated with the molecule Cc1nc(C2CC2)cc(C2CC2)c1Oc1nc(-c2cncc(C#N)c2)ccc1NS(C)(=O)=O [Compound I-162]
> 25 µM

Consider the molecule Cc1nc(N2CC(C#N)C2)nc(C)c1Oc1nc(-c2cncc(C#N)c2)ccc1NS(C)(=O)=O [Compound I-159] and give its measured EC50.
< 1 µM

# input molecule: Cc1cc(C)c(Oc2nc(-c3cncc(Cl)c3)ncc2NS(C)(=O)=O)c(C)n1 [Compound I-246] ; wanted: its EC50
< 1 µM

What value of EC50 has been recorded for this entry: Cc1cc(C)c(Oc2nc(-c3cncc(C#N)c3)ccc2N(C)S(C)(=O)=O)c(C)n1 [Compound I-166]
1 to 10 µM

Requested read-out: EC50. Entry: Cc1cc(C)c(Oc2nc(N3CC4(CCN(C(=O)C5CC5)C4)C3)ccc2NS(C)(=O)=O)c(C)c1 [Compound I-31]
> 25 µM

// query EC50 value for entry Cc1cc(C)c(Oc2nc(-c3cncc(Cl)c3)ccc2NS(C)(=O)=O)c(C2CC2)n1 [Compound I-40]
< 1 µM

Any idea what EC50 was measured for Cc1cc(C(F)(F)F)nc(C2CC2)c1Oc1nc(-c2cncc(C#N)c2)ccc1N(C)S(C)(=O)=O [Compound I-156] ?
< 1 µM

What does the record list as EC50 for Cc1cc(C)c(Oc2nc(-c3cncc(Cl)c3)ccc2N(C)S(=O)(=O)c2cnn(C)c2)c(C2CC2)c1 [Compound I-52] ?
< 1 µM

Could you share which EC50 value was measured for Cc1cc(C2CC2)nc(C)c1Oc1nc(-c2cncc(C#N)c2)ccc1NS(C)(=O)=O [Compound I-4] ?
< 1 µM

Give its EC50 value. Item: Cc1cc(C)c(Oc2nc(-c3cncc(C#N)c3)ccc2S(N)(=O)=O)c(C)c1 [Compound I-280]
< 1 µM

# input molecule: Cc1cc(C)c(Oc2nc(-c3cncc(Cl)c3)ccc2S(N)(=O)=O)c(C)c1 [Compound I-100] ; wanted: its EC50
< 1 µM

EC50 lookup needed for Cc1cc(C)c(Oc2nc(N3CCN(C(=O)C4CC4)CC3)ccc2NS(C)(=O)=O)c(C2CC2)n1 [Compound I-20] , thanks.
10 to 25 µM

Consider the molecule shown here: Cc1nc(C(F)(F)F)cc(C2CC2)c1Oc1nc(-c2cncc(C#N)c2)ccc1NS(C)(=O)=O [Compound I-155] What is its recorded EC50?
> 25 µM

Name the reported EC50 value associated with the molecule Cc1cc(C)c(Oc2nc(-c3cncc(Cl)c3)ccc2S(=O)(=O)NCc2ccccn2)c(C)c1 [Compound I-86]
1 to 10 µM

What measured EC50 goes with Cc1cc(N2CCC2)nc(C)c1Oc1nc(-c2cncc(C#N)c2)ccc1NS(C)(=O)=O [Compound I-177] ?
> 25 µM

So what does the record say about EC50 for Cc1nc(N2CC3(COC3)C2)nc(C)c1Oc1nc(-c2cncc(C#N)c2)ccc1NS(C)(=O)=O [Compound I-160] ?
> 25 µM

State the recorded EC50 for this entry: Cc1cc(C)c(Oc2nc(-c3cncc(C#N)c3)c(O)cc2NS(C)(=O)=O)c(C)n1 [Compound I-327]
< 1 µM

What measured EC50 goes with Cc1cc(C)c(Oc2nc(-c3ccn(C)c(=O)c3)ccc2NS(C)(=O)=O)c(C)n1 [Compound I-186] ?
> 25 µM

Recorded EC50 for Cc1nc(C(F)(F)F)nc(C)c1Oc1nc(-c2cncc(Cl)c2)ccc1NS(C)(=O)=O [Compound I-205] , please?
< 1 µM

# query: EC50 of entry Cc1cc(C2CC2)nc(C2CC2)c1Oc1nc(-c2cncc(C#N)c2)ccc1S(=N)(=O)C1CC1 (stereo not drawn) [Compound I-317]
1 to 10 µM

----------
Molecular target: ABCC6 WT (Homo sapiens)
Sequence (O95255 whole entry): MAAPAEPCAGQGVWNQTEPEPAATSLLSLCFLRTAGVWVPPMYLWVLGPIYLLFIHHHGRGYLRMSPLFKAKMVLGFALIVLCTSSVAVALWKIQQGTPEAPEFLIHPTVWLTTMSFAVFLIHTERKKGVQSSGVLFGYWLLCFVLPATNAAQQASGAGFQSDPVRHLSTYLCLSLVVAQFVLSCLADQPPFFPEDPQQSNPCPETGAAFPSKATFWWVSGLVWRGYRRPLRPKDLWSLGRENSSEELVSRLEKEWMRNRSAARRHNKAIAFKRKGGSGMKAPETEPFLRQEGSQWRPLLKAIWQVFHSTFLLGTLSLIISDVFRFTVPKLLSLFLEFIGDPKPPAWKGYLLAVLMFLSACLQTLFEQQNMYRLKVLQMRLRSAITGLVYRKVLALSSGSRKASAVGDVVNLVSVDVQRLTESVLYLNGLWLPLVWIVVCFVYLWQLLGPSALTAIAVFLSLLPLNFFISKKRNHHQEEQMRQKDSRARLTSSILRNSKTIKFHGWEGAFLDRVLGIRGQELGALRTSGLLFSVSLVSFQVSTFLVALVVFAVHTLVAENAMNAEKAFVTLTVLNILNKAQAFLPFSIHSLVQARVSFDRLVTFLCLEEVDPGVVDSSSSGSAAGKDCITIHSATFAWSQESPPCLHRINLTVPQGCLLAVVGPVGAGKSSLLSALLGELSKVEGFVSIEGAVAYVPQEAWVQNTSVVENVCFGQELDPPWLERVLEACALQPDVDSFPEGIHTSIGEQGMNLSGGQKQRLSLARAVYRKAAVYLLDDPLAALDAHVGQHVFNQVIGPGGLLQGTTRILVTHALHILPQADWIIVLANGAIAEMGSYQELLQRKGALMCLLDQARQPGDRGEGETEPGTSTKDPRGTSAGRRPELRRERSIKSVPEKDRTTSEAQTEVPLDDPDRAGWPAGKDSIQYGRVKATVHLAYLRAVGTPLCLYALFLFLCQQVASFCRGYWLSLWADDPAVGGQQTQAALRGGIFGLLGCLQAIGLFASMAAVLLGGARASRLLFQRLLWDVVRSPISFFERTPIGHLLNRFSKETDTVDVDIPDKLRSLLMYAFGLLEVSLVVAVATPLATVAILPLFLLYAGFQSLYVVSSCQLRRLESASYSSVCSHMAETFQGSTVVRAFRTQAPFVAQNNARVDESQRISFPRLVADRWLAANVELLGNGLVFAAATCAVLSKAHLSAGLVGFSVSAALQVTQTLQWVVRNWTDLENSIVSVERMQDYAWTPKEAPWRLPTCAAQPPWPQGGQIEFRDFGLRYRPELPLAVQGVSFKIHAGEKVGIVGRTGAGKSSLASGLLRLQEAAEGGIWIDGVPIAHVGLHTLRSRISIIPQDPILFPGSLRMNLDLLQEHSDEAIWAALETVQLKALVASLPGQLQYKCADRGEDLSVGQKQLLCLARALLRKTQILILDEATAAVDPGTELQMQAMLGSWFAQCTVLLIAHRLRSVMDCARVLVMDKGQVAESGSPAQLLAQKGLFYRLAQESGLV
Test: ABCC6 WT assay: HiBit protein expression
Settings: HEK-293 cells transiently expressing HiBit-tagged ABCC6 WT; 24 h treatment; top concentration 20 μM; read-out: ABCC6 WT EC50, Emax
EC50 by entry:

Below are worked cases with known answers.
>>> readout_value("Cc1cc(C)c(Oc2nc(-c3cncc(C#N)c3)ncc2NS(C)(=O)=O)c(C)n1")
"< 1000 nM"
>>> readout_value("Cc1cc(C(F)(F)F)nc(C2CC2)c1Oc1nc(-c2cncc(C#N)c2)ccc1S(=O)(=O)N1CCOCC1")
"≥ 25000 nM"
>>> readout_value("Cc1cc(C)c(Oc2nc(N3CCn4c(C)nnc4C3)ccc2NS(C)(=O)=O)c(C)c1")
"1000 to 10000 nM"
>>> readout_value("CNS(=O)(=O)c1ccc(N2CCN(C)C(=O)C2)nc1Oc1c(C)cc(C)cc1C")
"1000 to 10000 nM"
>>> readout_value("Cc1cc(C)c(Oc2nc(-c3cccc(Cl)c3)ccc2S(=O)(=O)NC2CCOC2)c(C)c1 (stereo not shown)")
"1000 to 10000 nM"

Please report the recorded EC50 for Cc1cc(C)c(Oc2nc(-c3cncc(Cl)c3)ccc2S(=O)(=O)NC(C)(C)C)c(C)c1 .
1000 to 10000 nM

Fill in: EC50 of Cc1cc(C)c(Oc2nc(-c3cncc(Cl)c3)ccc2N2CCCS2(=O)=O)c(C)c1 is ___
1000 to 10000 nM

Query: EC50; subject: CNS(=O)(=O)c1ccc(-c2cncc(C#N)c2)nc1Oc1nc(C)sc1C1CC1
< 25000 nM

Can you share its EC50? I mean this compound: Cc1cc(C)c(Oc2nc(-c3ccnc(C#N)c3)ccc2NS(=O)(=O)C2CC2)c(C)n1
< 1000 nM

Entry under review: Cc1cc(C)c(Oc2nc(N3CC4CC(C3)N4C(=O)C3CC3)ccc2NS(C)(=O)=O)c(C)c1 . Reported EC50?
1000 to 10000 nM

Fill blank: measured EC50 of the compound Cc1cc(C2CC2)nc(C)c1Oc1nc(-c2ccnc(C#N)c2)ccc1NS(C)(=O)=O is ____.
< 1000 nM

Field request: EC50 | item: Cc1cc(C)c(Oc2nc(-c3cncc(Cl)c3)ccc2S(=O)(=O)N[C@H](c2ccccc2)C(F)(F)F)c(C)c1
1000 to 10000 nM

# EC50 lookup, item COc1cc(C)c(Oc2nc(-c3cncc(C#N)c3)ccc2NS(C)(=O)=O)c(C)n1
< 1000 nM

----------
Target: UniProt:O95255
Assay: ABCC6 WT assay: HiBit protein expression
Details: HEK-293 cells transiently expressing HiBit-tagged ABCC6 WT; 24 h treatment; top concentration 20 μM; read-out: ABCC6 WT EC50, Emax
pEC50: −log10 of the molar value.
measurement kind: pEC50

>>> readout_value("Cc1cc(C(F)(F)F)nc(C2CC2)c1Oc1nc(-c2cncc(C#N)c2)ccc1S(=O)(=O)NC1CC1")
"> 6.00"
>>> readout_value("CNS(=O)(=O)c1ccc(-c2cncc(C#N)c2)nc1Oc1c(C)cc(C(F)(F)F)nc1C")
"5.00 to 6.00"

Then there is this compound:
Which measured pEC50 value corresponds to Cc1cc(C)c(Oc2nc(-c3cncc(N4CC(F)(F)C4)c3)ccc2NS(C)(=O)=O)c(C)n1 ?
> 6.00
